Numbers sourced from paper PMC5454865.

Target: UniProt:P11509
Sequence (P11509 1-494): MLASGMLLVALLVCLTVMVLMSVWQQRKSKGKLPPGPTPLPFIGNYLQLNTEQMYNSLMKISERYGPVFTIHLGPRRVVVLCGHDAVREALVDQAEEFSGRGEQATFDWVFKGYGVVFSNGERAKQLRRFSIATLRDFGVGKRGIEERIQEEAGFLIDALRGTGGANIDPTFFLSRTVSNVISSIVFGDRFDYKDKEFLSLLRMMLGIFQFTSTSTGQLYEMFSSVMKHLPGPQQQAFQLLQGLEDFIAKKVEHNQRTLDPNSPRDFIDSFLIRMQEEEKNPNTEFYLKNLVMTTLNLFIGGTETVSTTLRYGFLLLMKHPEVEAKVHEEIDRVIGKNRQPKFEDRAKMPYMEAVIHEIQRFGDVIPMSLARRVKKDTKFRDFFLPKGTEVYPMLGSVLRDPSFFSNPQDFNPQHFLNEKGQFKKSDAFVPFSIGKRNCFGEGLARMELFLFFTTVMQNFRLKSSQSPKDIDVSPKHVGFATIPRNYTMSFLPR
Assay: CYP2A6-catalyzed coumarin 7-hydroxylation, substrate cocktail, LC-MS/MS
Settings: human liver microsomes
parameter.measured: Inhibition of CYP2A6 activity at 100 μM

| compound | assayed.system | parameter.measured | result |
| --- | --- | --- | --- |
| COc1ccc([C@H]2OC[C@H]3[C@@H]2CO[C@@H]3c2cc(OC)c(OC)c(OC)c2)cc1OC [magnolin] | UniProt:P11509 | Inhibition of CYP2A6 activity at 100 μM | negligibly inhibited |
| COc1ccc([C@H]2OC[C@H]3[C@@H]2CO[C@@H]3c2ccc(OC)c(OC)c2)cc1OC [eudesmin] | UniProt:P11509 | Inhibition of CYP2A6 activity at 100 μM | negligibly inhibited |
| COc1ccc([C@@H]2OC[C@H]3[C@@H]2CO[C@@H]3c2cc(OC)c(OC)c(OC)c2)cc1OC [epimagnolin A] | UniProt:P11509 | Inhibition of CYP2A6 activity at 100 μM | negligibly inhibited |

---

Target: CYP2B6 (Homo sapiens, UniProt P20813)
Construct: pooled human liver microsomes (0.2 mg/mL), 50 μM bupropion; tissue Corning Life Sciences 452161; host or cells: pooled human liver microsomes
Sequence (P20813 1-491): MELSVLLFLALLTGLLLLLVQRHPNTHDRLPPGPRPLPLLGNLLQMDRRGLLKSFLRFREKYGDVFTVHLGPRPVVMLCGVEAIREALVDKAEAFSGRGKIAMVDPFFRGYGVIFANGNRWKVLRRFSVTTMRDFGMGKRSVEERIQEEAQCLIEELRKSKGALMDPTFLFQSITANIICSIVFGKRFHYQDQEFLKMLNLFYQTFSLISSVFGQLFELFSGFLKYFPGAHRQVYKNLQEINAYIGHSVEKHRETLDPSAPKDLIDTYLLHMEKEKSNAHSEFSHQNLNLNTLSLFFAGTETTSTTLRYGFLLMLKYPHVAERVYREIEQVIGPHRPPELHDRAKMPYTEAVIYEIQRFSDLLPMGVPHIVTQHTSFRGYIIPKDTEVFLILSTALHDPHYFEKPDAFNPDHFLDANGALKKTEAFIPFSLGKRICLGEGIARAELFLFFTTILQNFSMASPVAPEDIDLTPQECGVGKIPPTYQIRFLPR
Assay: CYP2B6-catalyzed bupropion hydroxylation, LC-MS/MS
Assay type: in vitro ADME
Conditions: human liver microsomes
parameter.measured: Inhibition of CYP2B6 activity at 100 μM

| molecule | assayed.system | result |
| --- | --- | --- |
| COc1ccc([C@H]2OC[C@H]3[C@@H]2CO[C@@H]3c2cc(OC)c(OC)c(OC)c2)cc1OC | CYP2B6 (Homo sapiens, UniProt P20813) | negligibly inhibited |
| COc1ccc([C@H]2OC[C@H]3[C@@H]2CO[C@@H]3c2ccc(OC)c(OC)c2)cc1OC | CYP2B6 (Homo sapiens, UniProt P20813) | negligibly inhibited |
| COc1ccc([C@@H]2OC[C@H]3[C@@H]2CO[C@@H]3c2cc(OC)c(OC)c(OC)c2)cc1OC [epimagnolin A] | CYP2B6 (Homo sapiens, UniProt P20813) | negligibly inhibited |
